- assay.method.text: soluble on expression in E. coli; label from the status in PepcDB or PDB records
reported.metric: soluble on expression in E. coli

sequence.input	observed.result
MGSDKIHHHHHHMSWKLSIIRLLNKSLVPNQQRALVVFTVLLLCACGKAKIPFSPITVSQTPVTTAQFTDDIDTVSTLEAKEEVHLAAQASGRIIELKIDQGDQVQPGQMLVVLDQAQIRAELADFKAQEQKNKLNWQRYEFLVPQGAASALDRDEYKAQYIASREKVKATEATLAYSNLRSPISGIVADVDVKVGDVIRSGDPFTKLIRNNRLFARVEVPATFSDRIKIGLPVFLNKTGSSDVMATGEINSVGPTVNRTTQGLLVKAAFENANGSLRNGQRLRTRVQLDTREELSVPFAAVTQTSGQSFVYRVGSFQELEDFSGNISLDKLRKLPPSTRFALQTPVTLGKLQKQRYAVTKGLKLGEQVITTNLLKLRHGMPISVKN	not soluble
MLLQANRGLGLSAHIIDHCNLILKFPEGTNSTWYNAQFKVFEALEFKYNVCEAVLLWEQYRNMTTVLTREYLDVRPDGWLDYAAMRIAQLGADKCYNRTLCEEHLNVILPAKPPFHPRQFHKCAVVGNSGDLLKTEFGEEIDSHDAVFRDNEAPVNEKYAKYVGVKRDFRLVVRGAARNMIKILNGSDNEVLIIKSVTHRDFNEMIKRIPNPVYLFQGIVLRRGAKGTGMKSIELALSMCDIVDIYGFTVDPGYTEWTRYFSTPRKGHNPLQGRAYYQLLECLGVQITC	not soluble

---

- assay.method.text: soluble on expression in E. coli; label from the status in PepcDB or PDB records
reported.metric: soluble on expression in E. coli

sequence.input	observed.result
MGSDKIHHHHHHGILKERKLAKKRDEVQRYVLMAADVNLGQGNEFREIFAKSVKPLLINLDTGKVDSDANVLDFDERMAAINPETSSTPKKDIAKIKTRANDARVFKVFDDSGKLSSVVVPFYGKGLWSMIYGYVAVEPDFNTIKGLVVYEHGETPGIGDFVTDPAWLNQWKNKQLFDEKGKFAIRLVKGGVKEGDVHGVDAVSGATMTGRGVQRAMEFWFGVEGFQTFFNQLKTSAVQGEFGGEK	not soluble
MYRIIEAPNSGKYPFSHSLLIGKSCIIDTGSGEALAPLRVDCVLNTHWHEDHIAMNSIGRKVLAHPLDAEAIESYEEFRRRYGIGDSVRLFINFEFGQVDDVFEDGEQLEFEGVSVEVIHTPGHSAGHCCFVINNEAVFLGDIDLTSFGPWYGCLDCDVDDFVRSVKKMMREVERRDIEIAIPSHGRPVYGKEEIIGAMREYLKKIFERDKAIRELVRLGVDPVGKGIIYRKIPEPREIYLHFEKIMVEKHLTTSLDEFCLDLEHHHHHH	not soluble

---

- assay.method.text: soluble on expression in E. coli; label from the status in PepcDB or PDB records
reported.metric: soluble on expression in E. coli

sequence.input	observed.result
MSPIDEFTYIKQNKIVYDSNSLIQLYFPIMGSDAMALYDYFVHFFDDGIRRHKFSEVLNHLQYGMPRFQDALVMLTALDLLTVYQATGTYLVKLNQAMSNELFLSNPIYRRLLEKRIGEVAVAELDMKIPKNARDISKKFTDVFSDLGQPKQEVNRSKNVFDLESFKRLMMRDGLRFNNEKDDVLGIYSVSELYHLNWYDTYQLAKQTAINGMIAPQRMKVQQNEGQHIKDNQSFTNNEKVILRESKNDSALVFLEKIKRSRKAVTTSGEKTLLEDLAKMNFLDEVINVMVLYTLNKTKSANLNKAYIMKVANDFAFQNVMTAEDAVLKIRDFSDQKVRTKTETKKKQSNVPEWSNPDYKDEVSPEKEIELEQFKTDALKRLERLGKDGES	not soluble
MKQEETLTKVKVAEVTHSIFYAPLYVAESKGFFKEEGLDVDVNTTWGGDKTMTSLLSNGSDIALVGSETSIYVEAQGAKDPVINFAQLTQTDGTFLVAREDVEHFDWDQLKGKTFLGQRKGGMPQMVGEYVLNKHKIDPHKDIDLIQNIDFANIANAFASGTGEYVQLFEPQLLSLRKKASAISWLHSEKNQERFLIRLLWRNKAILEHHHHHH	not soluble
MMNSTNKLSVIIPLYNAGDDFRTCMESLITQTWTALEIIIINDGSTDNSVEIAKYYAENYPHVRLLHQANAGASVARNRGIEVATGKYVAFVDADDEVYPTMYETLMTMALEDDLDVAQCNADWCFRETGETWQSIPTDRLRSTGVLTGPDWLRMGLSSRRWTHVVWMGVYRRDVIVKNNIKFIAGLHHQDIVWTTEFMFNALRARYTEQSLYKYYLHNTSVSRLHRQGNKNLNYQRHYIKITRLLEKLNRNYADKIMIYPEFHQQITYEALRVCHAVRKEPDILTRQRMIAEIFTSGMYKRLITNVRSVKVGYQALLWSFRLWQWRDKTRSHHRITRSAFNLRLEHHHHHH	not soluble
MEYRKVGKWGVKISELSLGSWLTFGKQLDLDTATEVVKKAFNSGINFFDTAEAYAGGIAEAMLGKILKNFRREDLVVSTKIFWGGSGPNDLGLSKKHLLEGTWNSLKRLQMDYVDILYCHRPDPNVPMEEVVFAMDYILREGLALYWGTSEWSAKEIEEAHRVCKELGVMPPIVEQPQYNMFVRERVEKEYAPLYEKYGMGLTTYSPLASGLLSGKYNNGIPEGSRLATFPQVRKWLEEGGLLNEKTFKKLRKLQNIADQLGASLPQLAIAWILKNKNVSSVILGVSRPEQLEENLKAVEIKEKLTEDVMEEIEKILNE	soluble
MAVTAQAARRKERVLCLFDVDGTLTPARQKIDPEVAAFLQKLRSRVQIGVVGGSDYCKIAEQLGDGDEVIEKFDYVFAENGTVQYKHGRLLSKQTIQNHLGEELLQDLINFCLSYMALLRLPKKRGTFIEFRNGMLNISPIGRSCTLEERIEFSELDKKEKIREKFVEALKTEFAGKGLRFSRGGMISFDVFPEGWDKRYCLDSLDQDSFDTIHFFGNETSPGGNDFEIFADPRTVGHSVVSPQDTVQRCREIFFPETAHEA	soluble

---

- assay.method.text: soluble on expression in E. coli; label from the status in PepcDB or PDB records

sequence.input	soluble on expression in E. coli
MSLTIAHLTSSAFAVNKERNKFLMIHHNIYNSWAWTGGHSDNEKDQLKVAIKELKEETGVKNPTPLLDKAFALDVLTVNGHIKRGKYVSSHLHLNLTYLIECSEDETLMLKEDENSGVMWIPFNEISKYCSEPHMIPIYEKLINKLKTQSKEGHHHHHH	not soluble
MSLSDDVALPLEFTDAAANKVKSLIADEDNPNLKLRVYITGGGCSGFQYGFTFDDQVNEGDMTIEKQGVGLVVDPMSLQYLVGGSVDYTEGLEGSRFIVTNPNAKSTCGCGSSFSIEGGSHHHHHH	soluble
GFSSEVLKKAYDDTEDIEDQLQQAEGRLFEISQHNMKQDVQPIDPIIKEALGEIQIAANRKEGLSGQPSGFPAIDKLTAGWQASDLIIIAARPAMGKTAFVLSMAKNMAIDYNIPVAIFNLEMSSVQLVKRLMSNVCEIPGEKLKTGRLESHEWVQLDTKLKDFENKPLYIDDTPSLSVFELRTKSRRLVREYGVKVIIIDYLQLMNASGMSFGNREQEVSTISRSLKVLAKELKIPIIALSQLNRSVETRQGDINSKRPQLSDLRESGAIEQDADMVCFIHRPEYYKITEDQQGNSLLGIGEFIIAKHRNGPVDDVRLRFRSEFAKFLPLEAESMVKRHSRIGGSPVEMGVGNGSFAPPLPPPEDNPLLSGPYSSGTSEADFLAEASGIDNPF	not soluble
MEMNRRRSRGFMIAKLMPFCKAVKSPTPSQDLYNNVHYTSSTTTSYARQPDFNNYVTATTPLPPKVSFLLQPSLAPEGKDMEKKLNMMAEKLIGRGINGVDDCVDARAASYISSVRERFKADQYCEKLTTVISLDDEN	soluble
MDFKTVMQELEALGKERTKKIYISNGAHEPVFGVATGAMKPIAKKIKLNQELAEELYATGNYDAMYFAGIIADPKAMSESDFDRWIDGAYFYMLSDYVVAVTLSESNIAQDVADKWIASGDELKMSAGWSCYCWLLGNRKDNAFSESKISDMLEMVKDTIHHSPERTKSAMNNFLNTVAISYVPLHEKAVEIAKEVGIVEVKRDNKKSSLLNASESIQKELDRGRLGFKRKYVRC	soluble
MSLCELSYLNAVVMLKAQRGGNSGLYFGSMTTFITSGGLEISPAGAHIVHAESPEGELLFVSSASQYGEGNAIRGGVPIIAPWFGGLLGLDPAHGWAKRSAWDVTEHDGQIHAEYGRDGLLLDIRANSTKNGFEITLRAYNDTDEARTVQLAFHPYFKVDDVEKIEVRGLDGVDILNRLNNEVETQDGPVTFDGEFDRIALGTPVVRIFDTDRIITIEGDGHDSTVVWNPGESRASTVADIGEGEWRDFVCVEPALLGADQKGVRVAPGQSVTVGMQVSVEKRAEGHHHHHH	soluble
MVAIIDASITRFGKRKESLLELAGEVALPLIGKYEIDFVVVSNSYSGEFNSLSGINNLITTYLSVDKVPSIRVDNTSGSGGSAILVAKSLLDSKITKTVLVLGVEKMSEKNTKQVTSVIASLLSPEEKIVGLTLPSLAGLMTKEYMRRYNASREAFALVAVKNHYNGSLNPFAHIQKVVSLEEVLNSPIIADPLTLYEFTPISDGASAIVMVRDEDAYSFTKKPVFI	not soluble
